Assay: NCI Yeast Anticancer Drug Screen. Data for the rad50 strain (AID 155)
Conditions: S. cerevisiae rad50 strain growth inhibition; at 5.0 µM (retest, dose inferred, filed as 0.5)
This is part of a sample that, as a whole, favours compounds with a hit. Of some 79,000 tested, about 15% had one in any assay. Active and inactive are the calls of the source. No stated cut-off is given here; in the data, active means growth inhibition above about 70%; inactive means the rest.
Hi! Could you answer with just one of these? active, inactive

Request: Which result was noted for this compound in the test: COc1cc(C(=O)C=[N+]=[N-])c([N+](=O)[O-])c(OC)c1OC
Result: inactive

Request: Same read-out for CCCCCCCCCCCCCCCCCCSSCCCCCCCCCCCCCCCCCC ?
Result: inactive

Request: Same read-out for COc1ccc2c(c1)nc1ccc(Cl)cc1[n+]2C ?
Result: inactive

Request: Same read-out for Cc1cccc[c]1[Sn]([Cl])([O][Sn]([Cl])([c]1ccccc1C)[c]1ccccc1C)[c]1ccccc1C ?
Result: inactive

Request: Same read-out for O=C(c1cccnc1)N(C1CCCCC1)C1CCCCC1 ?
Result: inactive

Request: Same read-out for Cc1cc(O)ccc1N=Nc1ccccc1 ?
Result: inactive

Request: Same read-out for CCNC1(C2c3ccccc3-c3ccccc32)c2ccccc2-c2ccccc21 ?
Result: inactive
